Target: AuroraA-TPX2 (Homo sapiens)
Construct: 20 μL of AuroraA-TPX2 KD GST for a final volume of about 41 μL; GST
Sequence (O14965 133-383 limits assumed): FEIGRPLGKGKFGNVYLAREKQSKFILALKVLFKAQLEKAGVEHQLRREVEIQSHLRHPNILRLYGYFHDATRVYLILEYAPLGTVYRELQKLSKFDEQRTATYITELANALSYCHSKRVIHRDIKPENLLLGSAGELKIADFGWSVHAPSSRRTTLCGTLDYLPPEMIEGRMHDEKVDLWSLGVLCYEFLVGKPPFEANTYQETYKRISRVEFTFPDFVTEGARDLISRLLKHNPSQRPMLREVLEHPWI
Sequence (Q9ULW0 1-43 partner limits assumed): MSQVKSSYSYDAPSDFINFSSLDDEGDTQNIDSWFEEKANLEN
Assay: AuroraA-TPX2 Homogeneous Time Resolved Fluorescent (HTRF) kinase assay
Assay type: biochemical
Conditions: average; read-out: AurA_IC50_IP (uM Avg)
experimental-readout: IC50 (µM)

INSERT INTO measurements (compound, experimental_readout, numeric_value) VALUES
  ('COc1cnc2c(Oc3ccc(Nc4nnc(-c5ccc(N6CCCCC6)cc5)c5ccccc45)cc3)ccnc2c1', 'IC50', 0.128);

(a) c1ccc(-c2nnc(Nc3ccc(Sc4ccnc5cccnc45)cc3)c3ccccc23)cc1 [compound 285]
(b) CCc1cc(-c2ccc(C)cc2)nnc1Nc1ccc(Nc2ccnc3cc(OC)cnc23)cc1
(c) COc1cnc2c(Sc3ccc(Nc4nnc(-c5ccccc5)c5ccccc45)cc3)ccnc2c1
Prompt line: Form: Sort by [IC50] Order [ ascending ] Answer format: the labels, ordered as requested.
Response line: a, c, b

(1) COc1cnc2c(Nc3cnc(Nc4nnc(-c5ccccc5)c5ccccc45)nc3)ccnc2c1
(2) Cc1ccc(-c2nnc(Nc3ccc(Oc4ccnc5ccsc45)cc3)c3ccccc23)cc1
Prompt line: Looking only at measured IC50, which entry is lower, 1 or 2 ? In your reply, give the label of the chosen option.
Response line: 1
(1: 0.038 µM, 2: 0.077 µM)

(A) O=c1ccc2nccc(Sc3ccc(Nc4nnc(-c5ccc(Cl)cn5)c5ccccc45)cc3)c2[nH]1
(B) COc1cccc(-c2nnc(Nc3ccc(Oc4ccnc5cc(-c6cncn6C)sc45)cc3)c3ccccc23)n1
Prompt line: Could you point out whether the larger IC50 belongs to A or to B ? In your reply, give the label of the chosen option.
Response line: A

###

Molecular target: AuroraB (Homo sapiens, UniProt Q96GD4)
Construct: 20 μL of AuroraB FL H is for a final volume of 41 μL; His
Sequence (Q96GD4 whole entry): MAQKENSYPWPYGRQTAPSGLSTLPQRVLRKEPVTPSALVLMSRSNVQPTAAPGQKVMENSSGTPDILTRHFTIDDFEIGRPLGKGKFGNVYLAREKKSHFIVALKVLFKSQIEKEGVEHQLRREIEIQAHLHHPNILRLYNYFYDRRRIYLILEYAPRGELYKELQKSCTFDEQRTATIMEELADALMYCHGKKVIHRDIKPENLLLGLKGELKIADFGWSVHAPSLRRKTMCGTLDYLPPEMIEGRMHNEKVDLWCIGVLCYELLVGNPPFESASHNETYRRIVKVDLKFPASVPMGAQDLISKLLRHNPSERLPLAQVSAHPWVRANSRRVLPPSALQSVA
Experiment: AuroraB Homogeneous Time Resolved Fluorescent (HTRF) kinase assay
Assay type: biochemical
Conditions: average; read-out: AurB_IC50_IP (uM Avg)
experimental-readout: IC50 (µM)

As a guide, the following entries are already answered.
INSERT INTO assay_data (compound, unit_spec, numeric_value) VALUES
  ('COc1cnc2c(Oc3ccc(Nc4nnc(-c5ccccc5)cc4C(C)C)cc3)ccnc2c1', 'µM', 0.006),
  ('COc1cnc2c(Sc3ccc(Nc4nnc(N5CCN6CC(F)(F)C[C@H]6C5)c5ccccc45)cc3)ccnc2c1', 'µM', 0.012);

(1) COc1cc2nccc(Oc3ccc(Nc4nnc(-c5ccccc5)c5ccccc45)cc3)c2cc1C#N
(2) COc1cnc2c(Oc3ccc(Nc4nnc(-c5ccc(OC(C)C)cc5)c5ccccc45)cc3)ccnc2c1
Prompt line: Could you point out whether the larger IC50 belongs to 1 or to 2 ? In your reply, give the label of the chosen option.
Response line: 1
(1: 0.26 µM, 2: 0.018 µM)

###

Biological target: AuroraB (Homo sapiens, UniProt Q96GD4)
Construct: 20 μL of AuroraB FL H is for a final volume of 41 μL; His
Assay: AuroraB Homogeneous Time Resolved Fluorescent (HTRF) kinase assay
Format: biochemical
Conditions: average; read-out: AurB_IC50_IP (uM Avg)
experimental-readout: IC50 (µM)

INSERT INTO measurements (compound, tested_target, experimental_readout, unit_spec, numeric_value) VALUES
  ('COc1cnc2c(Oc3ccc(Nc4nnc(-c5ccc(N6CCCCC6)cc5)c5ccccc45)cc3)ccnc2c1', 'AuroraB (Homo sapiens, UniProt Q96GD4)', 'IC50', 'µM', 0.004),
  ('COc1cnc2c(Oc3ccc(Nc4nnc(-c5cc(CF)cs5)c5ccccc45)cc3)ccnc2c1', 'AuroraB (Homo sapiens, UniProt Q96GD4)', 'IC50', 'µM', 0.009),
  ('COCc1cccc(-c2nnc(Nc3ccc(Oc4ccnc5cc(OC)cnc45)cc3)c3ccccc23)n1', 'AuroraB (Homo sapiens, UniProt Q96GD4)', 'IC50', 'µM', 0.003),
  ('COc1ccc2c(Sc3ccc(Nc4nnc(-c5ccc(Cl)cn5)c5ccccc45)cc3)ccnc2c1', 'AuroraB (Homo sapiens, UniProt Q96GD4)', 'IC50', 'µM', 0.073),
  ('Cc1csc(-c2nnc(Nc3ccc(Oc4ccnc5ccc(OC(F)(F)F)cc45)cc3)c3ccccc23)c1', 'AuroraB (Homo sapiens, UniProt Q96GD4)', 'IC50', 'µM', 0.81),
  ('COc1ccc2c(C(O)c3ccc(Nc4nnc(-c5ccc(Cl)cc5)c5ccccc45)cc3)ccnc2c1 (stereo not shown)', 'AuroraB (Homo sapiens, UniProt Q96GD4)', 'IC50', 'µM', 0.046);

(A) c1cnc2c(Sc3ccc(Nc4nnc(-c5ccc6c(c5)CCO6)c5ccccc45)cc3)ccnc2c1
(B) CNC(=O)c1cc(Sc2ccc(Nc3nnc(-c4ccc(Cl)cc4)c4ccccc34)cc2)ccn1
(C) c1ccc(-c2nnc(Nc3ccc(Sc4ccnc5ccncc45)cc3)c3ccccc23)cc1
Prompt line: Form: Sort by [IC50] Order [ ascending ] Answer format: the labels, ordered as requested.
Response line: C, A, B

###

Target: AuroraA-TPX2 (Homo sapiens)
Construct: 20 μL of AuroraA-TPX2 KD GST for a final volume of about 41 μL; GST
Assay: AuroraA-TPX2 Homogeneous Time Resolved Fluorescent (HTRF) kinase assay
Format: biochemical
Settings: average; read-out: AurA_IC50_IP (uM Avg)
experimental-readout: IC50 (µM)

As a guide, the following entries are already answered.
INSERT INTO results (compound, experimental_readout, numeric_value) VALUES
  ('NC(=O)c1cc2nccc(Oc3ccc(Nc4nnc(-c5ccccc5)c5ccccc45)cc3)c2s1 [Example 46]', 'IC50', 0.015),
  ('COc1cc(OC)c2c(Sc3ccc(Nc4nnc(-c5ccccc5)c5ccccc45)cc3)ncnc2c1 [compound 581]', 'IC50', 1.13),
  ('COc1cccc(-c2nnc(Nc3ccc(Oc4ccnc5cc(OC)cnc45)cc3)c3ccccc23)c1 [compound 139]', 'IC50', 0.018),
  ('CCc1ccc(-c2nnc(Nc3ccc(Oc4ccnc5cc(OC)cnc45)cc3)c3ccccc23)cc1 [compound 221]', 'IC50', 0.026);

(1) COc1cnc2c(Oc3ccc(Nc4nnc(N5CC[C@@H]6CCCC[C@H]6C5)c5ccccc45)cc3)ccnc2c1 [compound 587]
(2) CCc1cc(-c2cccc(Cl)c2)nnc1Nc1ccc(Oc2ccnc3cc(OC)cnc23)cc1 [compound 335]
Prompt line: Looking only at measured IC50, which entry is lower, 1 or 2 ? In your reply, give the label of the chosen option.
Response line: 2
(2: 0.062 µM, 1: 0.217 µM)

###

Target: AuroraB (Homo sapiens)
Construct: 20 μL of AuroraB FL H is for a final volume of 41 μL; His
Assay: AuroraB Homogeneous Time Resolved Fluorescent (HTRF) kinase assay
Type: biochemical
Settings: average; read-out: AurB_IC50_IP (uM Avg)
experimental-readout: IC50 (µM)

(P) COc1cnc2c(Oc3ccc(Nc4nnc(-c5ccccc5)c5ccccc45)cc3F)ccnc2c1
(Q) Cc1csc(-c2nnc(Nc3ccc(Oc4ncnc5ccccc45)cc3)c3ccccc23)c1
Prompt line: Looking only at measured IC50, which entry is lower, P or Q ? In your reply, give the label of the chosen option.
Response line: P
(P: 0.007 µM, Q: 0.011 µM)

###

Target: AuroraB (Homo sapiens)
Construct: 20 μL of AuroraB FL H is for a final volume of 41 μL; His
Test: AuroraB Homogeneous Time Resolved Fluorescent (HTRF) kinase assay
Format: biochemical
Details: average; read-out: AurB_IC50_IP (uM Avg)
experimental-readout: IC50 (µM)

As a guide, the following entries are already answered.
INSERT INTO assay_data (smiles, tested_target, experimental_readout, numeric_value) VALUES
  ('Cc1csc(-c2nnc(Nc3ccc(Sc4ccnc5ccn(C(C)C)c45)cc3)c3ccccc23)c1', 'AuroraB (Homo sapiens)', 'IC50', 0.099),
  ('FC1(F)Oc2ccc(-c3nnc(Nc4ccc(Sc5ccnc6cccnc56)cc4)c4ccccc34)cc2O1', 'AuroraB (Homo sapiens)', 'IC50', 0.022),
  ('COc1cc2nccc(Sc3ccc(Nc4nnc(-c5ccc(Cl)cc5)c5ccccc45)cc3)c2nc1OC', 'AuroraB (Homo sapiens)', 'IC50', 0.595),
  ('COc1cnc2c(Sc3ccc(Nc4nnc(-c5cscn5)c5ccccc45)cc3)ccnc2c1', 'AuroraB (Homo sapiens)', 'IC50', 0.089),
  ('CCc1cc(-c2ccccc2)nnc1Nc1ccc(Oc2ccnc3cc(C#N)ccc23)cc1', 'AuroraB (Homo sapiens)', 'IC50', 0.014);

(I) COc1cc2ncnc(Sc3ccc(Nc4nnc(-c5ccc(Cl)cc5)c5ccccc45)cc3)c2cc1OC
(II) COc1cc2nccc(Oc3ccc(Nc4nnc(-c5cccc(CO)n5)c5ccccc45)cc3)c2cc1OC
(III) COc1cc(OC)c2c(Sc3ccc(Nc4nnc(-c5cc(C)cs5)c5ccccc45)cc3)ccnc2c1
Prompt line: Form: Sort by [IC50] Order [ ascending ] Answer format: the labels, ordered as requested.
Response line: II, I, III

FYI, the data here is from patent US8557816B2.
